# protocol-summary: Pharmacokinetic (PK) assay in rat
# Format: in vivo
# condition-details: male SD rat; tail vein and gavage groups, route of the parameter and dose not given; read-out: Cmax (peak concentration)
readout-name: Cmax (µM)
Give just the numeric value; µM need not be written.

Task: For O=C(Nc1nc2cccc(C3=CCC(NC(=O)C4CC4(F)F)CC3)n2n1)C1CC1 (stereo not drawn) [Compound 1-7] , what is its reported Cmax?
Result: 23.9

Task: For O=C(Nc1nc2cccc(C3CCC(NC(=O)C4CC4(F)F)CC3)n2n1)C1CC1 (stereo not drawn) [Compound 4-2] , what is its reported Cmax?
Result: 13.4

Task: For O=C(Nc1nc2cccc(C3=CC[C@@H](NC(=O)[C@@H]4CC4(F)F)CC3)n2n1)C1CC1 [Compound 3-1] , what is its reported Cmax?
Result: 3.8

* * *

# assayed-target: TYK2 (h) (Homo sapiens (Human))
# Sequence (P29597 whole entry): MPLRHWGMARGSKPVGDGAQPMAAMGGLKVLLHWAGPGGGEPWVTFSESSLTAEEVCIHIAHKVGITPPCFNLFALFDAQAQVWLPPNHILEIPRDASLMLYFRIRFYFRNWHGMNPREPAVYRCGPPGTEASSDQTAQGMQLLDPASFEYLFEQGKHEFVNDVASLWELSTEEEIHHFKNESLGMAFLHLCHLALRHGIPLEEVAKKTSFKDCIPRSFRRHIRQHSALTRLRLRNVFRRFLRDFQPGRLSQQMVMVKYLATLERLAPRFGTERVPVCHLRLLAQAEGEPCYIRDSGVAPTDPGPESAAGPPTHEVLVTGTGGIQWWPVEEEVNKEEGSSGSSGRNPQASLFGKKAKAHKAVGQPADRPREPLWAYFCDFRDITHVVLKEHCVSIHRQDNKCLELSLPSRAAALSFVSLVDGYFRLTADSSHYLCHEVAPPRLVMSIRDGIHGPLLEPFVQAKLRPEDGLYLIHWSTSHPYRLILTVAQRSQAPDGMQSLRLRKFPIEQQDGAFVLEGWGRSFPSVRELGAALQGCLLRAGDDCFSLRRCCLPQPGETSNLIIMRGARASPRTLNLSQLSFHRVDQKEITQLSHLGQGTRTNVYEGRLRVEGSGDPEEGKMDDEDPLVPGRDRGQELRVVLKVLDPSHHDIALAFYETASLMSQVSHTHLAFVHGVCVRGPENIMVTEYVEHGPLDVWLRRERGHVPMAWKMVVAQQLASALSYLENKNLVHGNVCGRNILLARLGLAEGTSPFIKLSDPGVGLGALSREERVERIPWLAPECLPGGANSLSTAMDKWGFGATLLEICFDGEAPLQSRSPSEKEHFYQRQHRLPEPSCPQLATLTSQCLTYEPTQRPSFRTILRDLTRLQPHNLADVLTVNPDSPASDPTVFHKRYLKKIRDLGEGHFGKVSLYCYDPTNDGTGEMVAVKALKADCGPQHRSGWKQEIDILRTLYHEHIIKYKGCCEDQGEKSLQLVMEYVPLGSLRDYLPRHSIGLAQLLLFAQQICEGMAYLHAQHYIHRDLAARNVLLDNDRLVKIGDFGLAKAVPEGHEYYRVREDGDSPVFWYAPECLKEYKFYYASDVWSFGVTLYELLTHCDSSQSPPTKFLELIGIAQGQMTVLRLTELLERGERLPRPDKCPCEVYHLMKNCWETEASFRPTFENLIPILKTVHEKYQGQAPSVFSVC
# protocol-summary: In vitro activity assay of TYK2 kinase (radiometric 33P-ATP, Eurofins)
# condition-details: recombinant human TYK2
Give IC50 for every item shown.

Task: For O=C(Nc1nc2cccc(C3CCC(NC(=O)C4CC4(F)F)CC3)n2n1)C1CC1 (stereo not shown) , what is its reported IC50?
Result: 0.01 µM

Task: For `O=C(Nc1nc2cccc(C3=CC[C@H](NC(=O)[C@@H]4CC4(F)F)CC3)n2n1)C1CC1` , what is its reported IC50?
Result: 0.942 µM

Task: For O=C(Nc1nc2cccc(C3CCC(NC(=O)C4(F)CC4)CC3)n2n1)C1CC1 (stereo not shown) , what is its reported IC50?
Result: 0.127 µM

Task: For O=C(Nc1nc2cccc(C3CCC(NC(=O)[C@@H]4CC4(F)F)CC3)n2n1)C1CC1 (single isomer, unassigned) [Compound 8-3] , what is its reported IC50?
Result: 3.44 µM

Task: For O=C(Nc1nc2cccc(C3=CCC(NC(=O)C4CC4)CC3)n2n1)C1CC1 (stereo not shown) , what is its reported IC50?
Result: 0.497 µM

Task: For `O=C(Nc1nc2cccc(C3=CC[C@@H](NC(=O)[C@@H]4CC4(F)F)CC3)n2n1)C1CC1` , what is its reported IC50?
Result: 0.078 µM

Task: For O=C(Nc1nc2cccc(C3CCC(NC(=O)[C@H]4CC4(F)F)CC3)n2n1)C1CC1 (single isomer, unassigned) [Compound 8-2] , what is its reported IC50?
Result: 0.024 µM

Task: For `O=C(Nc1nc2cccc(C3=CC[C@@H](NC(=O)[C@H]4CC4(F)F)CC3)n2n1)C1CC1` , what is its reported IC50?
Result: 1.37 µM

Task: For `O=C(Nc1nc2cccc(C3=CCN(C(=O)C4CC4)CC3)n2n1)C1CC1` , what is its reported IC50?
Result: 0.178 µM

Task: For `O=C(Nc1nc2cccc(C3=CC[C@H](NC(=O)[C@H]4CC4(F)F)CC3)n2n1)C1CC1` , what is its reported IC50?
Result: 0.071 µM

Task: For `O=C(Nc1nc2cccc(C3=CCN(C(=O)C4(F)CC4)C3)n2n1)C1CC1` , what is its reported IC50?
Result: 2.87 µM

Task: For O=C(Nc1nc2cccc(C3CCC(NC(=O)[C@@H]4CC4(F)F)CC3)n2n1)C1CC1 (single isomer, unassigned) [Compound 8-1] , what is its reported IC50?
Result: 0.633 µM

Task: For O=C(Nc1nc2cccc(C3=CCN(C(=O)C4CC4(F)F)C3)n2n1)C1CC1 (stereo not shown) , what is its reported IC50?
Result: 0.244 µM

Task: For O=C(Nc1nc2nccc(C3CCC(NC(=O)C4CC4(F)F)CC3)c2s1)C1CC1 (stereo not shown) , what is its reported IC50?
Result: 0.245 µM

Task: For O=C(Nc1nc2cccc(C3=CCC(NC(=O)C4CC4(F)F)CC3)n2n1)C1CC1 (stereo not shown) , what is its reported IC50?
Result: 0.073 µM

Task: For O=C(Nc1nc2cccc(C3CCC(NC(=O)[C@H]4CC4(F)F)CC3)n2n1)C1CC1 (single isomer, unassigned) [Compound 8-4] , what is its reported IC50?
Result: 2.44 µM

Values compiled from patent US11427581B2.
